Source of measurements: ChEMBL document CHEMBL4673302

assay: Cytotoxicity against human HaCaT cells assessed as cell growth inhibition measured after 48 hrs by sulforhodamine B assay; type: cell-based; settings: HaCaT cells
OUTCOME_MEASURE: GI50 at 48 h

Check out these entries, answers already filled in.
{"COMPOUND": "CCOC(=O)c1nn(-c2ccc(Cl)cc2)c(-c2ccccc2)c1CNC(C)(C)C", "GI50 at 48 h": "> 608 µM"}
{"COMPOUND": "CCOC(=O)c1nn(-c2ccc(Cl)cc2)c(-c2ccc(Br)cc2)c1CNC(C)(C)C", "GI50 at 48 h": "> 511 µM"}

GI50 at 48 h recorded for this compound, `CC(C)(C)NCc1c(C(=O)O)nn(-c2ccc(Cl)cc2)c1-c1ccc(Cl)cc1` , is 87.5 µM

The compound listed as `Cc1ccc(-c2c(CNC(C)(C)C)c(C(=O)O)nn2-c2ccc(Cl)cc2)cc1` has a reported GI50 at 48 h of > 630 µM

Value of GI50 at 48 h reported for the compound `CC(C)(C)NCc1c(C(=O)O)nn(-c2ccc(Cl)cc2)c1-c1ccc(Br)cc1` is > 542 µM

Value of GI50 at 48 h reported for the compound `CC(C)(C)NCc1c(C(=O)O)nn(-c2ccc(Cl)cc2)c1-c1ccccc1` is 175 µM

Record `CC(C)(C)NCc1c(C(=O)O)nn(-c2ccc(Cl)cc2)c1-c1ccc([N+](=O)[O-])cc1` , field GI50 at 48 h: > 584 µM

Documented GI50 at 48 h of `Cc1ccc(-c2c(CNC(C)(C)C)c(C(=O)O)nn2-c2ccccc2)cc1` : > 688 µM

GET /value?item= `CC(C)(C)NCc1c(C(=O)O)nn(-c2ccccc2)c1-c1ccc(Br)cc1` &field=GI50 at 48 h returns 366 µM

The reported value for `CC(C)(C)NCc1c(C(=O)O)nn(-c2ccccc2)c1-c1ccc(F)cc1` in terms of GI50 at 48 h is > 681 µM

###

assay: Cytotoxicity against human HaCaT cells assessed as cell growth inhibition measured after 48 hrs by sulforhodamine B assay; format: cell-based; settings: HaCaT cells
Below, each of the compounds is paired with its reported GI50 at 48 h value.

# compound `COc1ccc(-c2c(CNC(C)(C)C)c(C(=O)O)nn2-c2ccc(Cl)cc2)cc1` ; its GI50 at 48 h = 121 µM

###

tested on: K562; experiment: Anticancer activity against human K562 cells assessed as cell growth inhibition measured after 48 hrs by sulforhodamine B assay; type: functional; conditions: 48 h
Listed below: GI50 values for each entry.

{"COMPOUND": "CCOC(=O)c1nn(-c2ccc(Cl)cc2)c(-c2ccc(C)cc2)c1CNC(C)(C)C", "GI50": "> 542 µM"}

Query `CCOC(=O)c1nn(-c2ccc(Cl)cc2)c(-c2ccc(F)cc2)c1CNC(C)(C)C` yields GI50 of > 538 µM

###

tested on: HaCaT; assay: Cytotoxicity against human HaCaT cells assessed as cell growth inhibition measured after 48 hrs by sulforhodamine B assay; format: cell-based; conditions: hacat, 48 h
Mark each entry rule met if its GI50 sits below 60 µM, and rule not met for all others.

{"COMPOUND": "CCOC(=O)c1nn(-c2ccc(Cl)cc2)c(-c2ccc(Br)cc2)c1CNC(C)(C)C", "GROUP": "rule not met"}

Let us examine a further case.
Q: Please determine if `CCOC(=O)c1nn(-c2ccc(Cl)cc2)c(-c2ccccc2)c1CNC(C)(C)C` is below 60 µM in terms of GI50.
Ans: rule not met
